tested on: Hsp90/Cdc37; assay: FIMM screening in split Renilla luciferase assay with hypomorphic NRL-Hsp90 construct, 20 μM; format: biochemical; settings: mean of 3 wells, DMSO 50019
Where a name gives a salt, the structure may show the parent alone.
ENDPOINT: Average RLU (FIMM Screening-1) (RLU)
API: value field is a number in RLU; no unit string.

>  <COMPOUND>
C=CCNC1=C2C[C@@H](C)C[C@H](OC)[C@H](O)[C@@H](C)/C=C(\C)[C@H](OC(N)=O)[C@@H](OC)/C=C\C=C(/C)C(=O)NC(=CC1=O)C2=O [17-AAG, 17-allylamino-17-demethoxy-geldanamycin, reference compound]

>  <TARGET_UNDER_TEST>
Hsp90/Cdc37

>  <ENDPOINT>
Average RLU (FIMM Screening-1)

>  <UNIT_TEXT>
RLU

>  <EXPERIMENTAL_VALUE>
44367

$$$$

Request: Average RLU (FIMM Screening-1), test system Hsp90/Cdc37, entry NC[C@@H]1O[C@H](O[C@H]2[C@@H](O)[C@H](O[C@@H]3[C@@H](O)[C@H](N)C[C@H](N)[C@H]3O[C@H]3O[C@H](CO)[C@@H](O)[C@H](O)[C@H]3N)O[C@@H]2CO)[C@H](N)[C@@H](O)[C@@H]1O [compound 6, Paromomycin sulfate, reference compound]
33633

Give Average RLU (FIMM Screening-1) (Hsp90/Cdc37) of the following compound: O=C(O[C@@H]1Cc2c(O)cc(O)cc2O[C@@H]1c1cc(O)c(O)c(O)c1)c1cc(O)c(O)c(O)c1 [compound 3, Epigallocatechin gallate]
22619

// fetch Hsp90/Cdc37 Average RLU (FIMM Screening-1) for O=C(O[C@@H]1Cc2c(O)cc(O)cc2O[C@@H]1c1cc(O)c(=O)c2c(O)c(O)cc([C@H]3Oc4cc(O)cc(O)c4C[C@H]3O)c2c1)c1cc(O)c(O)c(O)c1
12688
